test: Plasma concentration after intraduodenal administration (Example 8); assay type: in vivo, Sprague-Dawley rats; conditions: male, Sprague-Dawley, rat, plasma, other: intraduodenal, 30 mg/kg, 30 mg/kg intraduodenal, male rats 1, 3, 4, 5, time point 0 hr; read-out: ZGN-201 Conc. in Rat Plasma, individual animals
reportedProperty: concentration at 0 hr (ng/mL)
Hi! Could you send only the number? It should be in ng/mL, unit omitted.

concentration at 0 hr measured on CO[C@@H]1[C@H](OC(=O)/C=C/C=C/C=C/C=C/C(=O)O)CC[C@]2(CO2)[C@H]1[C@@]1(C)O[C@@H]1CC=C(C)C = 1

====

Test: Plasma concentration after intraduodenal administration (Example 8)
Assay type: in vivo, Sprague-Dawley rats
Conditions: male, Sprague-Dawley, rat, plasma, other: intraduodenal, 30 mg/kg, 30 mg/kg intraduodenal, male rats, time point 0.25 hr; read-out: ZGN-201 Conc. in Rat Plasma, Mean
Method: A study was undertaken to investigate absorption of fumagillin from the small intestine. Five male Sprague-Dawley rats were fasted, and were then catheterized into the duodenum, 1.5 centimeters below the stomach. The stomachs of these rats were tied off so administration would bypass the stomach of each rat. Rats were then infused with 30 mg/kg of fumagillin and an equal volume of Trypan blue (Invitrogen). […]
reportedProperty: concentration at 0.25 hr (ng/mL)
The reply should be a number in ng/mL, with the unit left off.

So, CO[C@@H]1[C@H](OC(=O)/C=C/C=C/C=C/C=C/C(=O)O)CC[C@]2(CO2)[C@H]1[C@@]1(C)O[C@@H]1CC=C(C)C ? Its concentration at 0.25 hr was 9200

====

assay: Plasma concentration after intraduodenal administration (Example 8); type: in vivo, Sprague-Dawley rats; conditions: male, Sprague-Dawley, rat, plasma, other: intraduodenal, 30 mg/kg, 30 mg/kg intraduodenal, male rats, time point 2 hr; read-out: ZGN-201 Conc. in Rat Plasma, Mean
reportedProperty: concentration at 2 hr (ng/mL)
# unit: ng/mL | format: bare number

Lab note: measured concentration at 2 hr of CO[C@@H]1[C@H](OC(=O)/C=C/C=C/C=C/C=C/C(=O)O)CC[C@]2(CO2)[C@H]1[C@@]1(C)O[C@@H]1CC=C(C)C [fumagillin] was 506

====

assay: Plasma concentration after intraduodenal administration (Example 8); type: in vivo, Sprague-Dawley rats; conditions: male, Sprague-Dawley, rat, plasma, other: intraduodenal, 30 mg/kg, 30 mg/kg intraduodenal, male rats 1, 3, 4, 5, time point 0.25 hr; read-out: ZGN-201 Conc. in Rat Plasma, individual animals
reportedProperty: concentration at 0.25 hr

Briefly, concentration at 0.25 hr measured for CO[C@@H]1[C@H](OC(=O)/C=C/C=C/C=C/C=C/C(=O)O)CC[C@]2(CO2)[C@H]1[C@@]1(C)O[C@@H]1CC=C(C)C : 7.71 µg/mL

====

assay: Plasma concentration after intraduodenal administration (Example 8); type: in vivo, Sprague-Dawley rats; conditions: male, Sprague-Dawley, rat, plasma, other: intraduodenal, 30 mg/kg, 30 mg/kg intraduodenal, male rats 1, 3, 4, 5, time point 0.083 hr; read-out: ZGN-201 Conc. in Rat Plasma, individual animals
reportedProperty: concentration at 0.083 hr (ng/mL)
Report only the number, with the unit ng/mL understood.

Documented concentration at 0.083 hr of CO[C@@H]1[C@H](OC(=O)/C=C/C=C/C=C/C=C/C(=O)O)CC[C@]2(CO2)[C@H]1[C@@]1(C)O[C@@H]1CC=C(C)C [fumagillin] : 31400

Just for reference, patent US9925166B2 is where these values come from.
